Value source: patent US11299494B2

# STUDY_SYSTEM: human Tyk2 (amino acids 575-869, His-tagged) (Homo sapiens)
# EXPERIMENTAL_PROTOCOL: Probe displacement assay (scintillation proximity, radiolabeled probe)
# ASSAY_CONTEXT: 2.5 nM Tyk2 (575-869), 40 nM tritiated probe, 30 minutes at room temperature
The compounds listed here are annotated with their pEC50.
Lab note: report pEC50 as minus log10 of the concentration in molar units, number only.

Look over these answered cases.
>>> assay_value("CNc1cc(-n2cc(C(=O)NCC(C)(C)O)c3ccccc32)nn2c(C(=O)NC3CCC3)cnc12")
8.22
>>> assay_value("CNc1cc(-n2cc(C(=O)NCC(C)(C)O)c3ccccc32)nn2c(C(=O)NC3CC3)cnc12")
7.66
>>> assay_value("CNc1cc(-n2cc(C(=O)Nc3cccnc3)c3ccccc32)nn2c(C(=O)NC3CC3)cnc12")
7.66
>>> assay_value("CNc1cc(-n2cc(C(=O)Nc3ccccc3)c3ccccc32)nn2c(C(=O)NC3CC3)cnc12")
7.60

Query: Give its pEC50 value. Item: CNc1cc(-n2cc(C(=O)NC(C)C)c3ccccc32)nn2c(C(=O)NC3CC3)cnc12
Reply: 7.40

Query: What does the data say about its pEC50? Entry: CCNC(=O)c1cn(-c2cc(NC)c3ncc(C(=O)NC4CC4)n3n2)c2ccccc12
Reply: 8.30

Query: Dear colleague, I am looking for the recorded pEC50 of the following compound: CNc1cc(-n2cc(C(=O)NC3CCOCC3)c3ccccc32)nn2c(C(=O)NC3CCC3)cnc12
Reply: 8.00

Query: Value lookup for pEC50; key = CNc1cc(-n2ccc3ccccc32)nn2c(C(=O)NC3CC3)cnc12
Reply: 7.89

Query: pEC50 lookup needed for CNc1cc(-n2cc(C(=O)NCC(C)C)c3ccccc32)nn2c(C(=O)NC3CC3)cnc12 , thanks.
Reply: 7.46

* * *

Parameter: IC50. Scope: all listed entries.
# Tested on: IL-23 Kit225 Reporter (Kit225 T cells with STAT-dependent luciferase reporter)
# EXPERIMENTAL_PROTOCOL: Kit225 T cell assay, IL-23 stimulated STAT-dependent luciferase reporter
# Format: cell-based
# ASSAY_CONTEXT: 20 ng/mL human recombinant IL-23, 5-6 hours
Provide only the numeric value, understood in µM.

>>> assay_value("CNc1cc(-n2ccc3ccccc32)nn2c(C(=O)NC3CC3)cnc12")
0.661
>>> assay_value("CNc1cc(-n2cc(C(=O)O)c3ccccc32)nn2c(C(=O)NC3CCC3)cnc12")
12.5
>>> assay_value("CCNC(=O)c1cn(-c2cc(NC)c3ncc(C(=O)NC4CC4)n3n2)c2ccccc12")
0.813
>>> assay_value("CNc1cc(-n2cc(C(=O)Nc3cccnc3)c3ccccc32)nn2c(C(=O)NC3CC3)cnc12")
1.89
>>> assay_value("CNc1cc(-n2cc(C(=O)NC(C)C)c3ccccc32)nn2c(C(=O)NC3CC3)cnc12")
3.09

Query: Entry under review: CNc1cc(-n2cc(C(=O)NC3CCOCC3)c3ccccc32)nn2c(C(=O)NC3CCC3)cnc12 . Reported IC50?
Reply: 1.37

Query: Item under review: CNc1cc(-n2cc(C(=O)N3CCC(O)CC3)c3ccccc32)nn2c(C(=O)NC3CC3)cnc12 . Reported IC50?
Reply: 12.5

Query: What does the data say about its IC50? Entry: CNc1cc(-n2nc(C(=O)NCC(C)(C)O)c3ccccc32)nn2c(C(=O)NC3CC3)cnc12
Reply: 0.926

* * *

# Test system: IL-23 Kit225 Reporter (Kit225 T cells with STAT-dependent luciferase reporter)
# EXPERIMENTAL_PROTOCOL: Kit225 T cell assay, IL-23 stimulated STAT-dependent luciferase reporter
# Format: cell-based
# ASSAY_CONTEXT: 20 ng/mL human recombinant IL-23, 5-6 hours
MEASUREMENT_KIND: IC50 (µM)
Kindly provide the numeric value in µM only, without the unit symbol.

Here is how some compounds turned out for IC50.
>>> assay_value("CNc1cc(-n2nc(C(=O)N3CCOCC3)c3ccccc32)nn2c(C(=O)NC3CC3)cnc12")
0.7
>>> assay_value("CNc1cc(-n2cc(C(=O)NCC(C)(C)O)c3ccccc32)nn2c(C(=O)NC3CC3)cnc12")
2.1
>>> assay_value("CNc1cc(-n2cc(C(=O)Nc3ccccc3)c3ccccc32)nn2c(C(=O)NC3CC3)cnc12")
1.96
>>> assay_value("CNc1cc(-n2cc(C(=O)NCCOC)c3ccccc32)nn2c(C(=O)NC3CC3)cnc12")
0.574
>>> assay_value("CNc1cc(-n2cnc3ccccc32)nn2c(C(=O)NC3CC3)cnc12")
3.64

Query: So what's the measured IC50 for this one? CNc1cc(-n2cc(C(=O)NCCC(N)=O)c3ccccc32)nn2c(C(=O)NC3CC3)cnc12
Reply: 12.5

Query: # get_value(readout='IC50', item= CNC(=O)c1nn(-c2cc(NC)c3ncc(C(=O)NC4CC4)n3n2)c2ccccc12 )
Reply: 0.355

Query: Reported IC50 for CNc1cc(-n2ccc3ncccc32)nn2c(C(=O)NC3CC3)cnc12 : what is it?
Reply: 0.947

* * *

# STUDY_SYSTEM: human Tyk2 (amino acids 575-869, His-tagged) (Homo sapiens, UniProt P29597)
# Sequence (P29597 with tags, fused parts or gaps): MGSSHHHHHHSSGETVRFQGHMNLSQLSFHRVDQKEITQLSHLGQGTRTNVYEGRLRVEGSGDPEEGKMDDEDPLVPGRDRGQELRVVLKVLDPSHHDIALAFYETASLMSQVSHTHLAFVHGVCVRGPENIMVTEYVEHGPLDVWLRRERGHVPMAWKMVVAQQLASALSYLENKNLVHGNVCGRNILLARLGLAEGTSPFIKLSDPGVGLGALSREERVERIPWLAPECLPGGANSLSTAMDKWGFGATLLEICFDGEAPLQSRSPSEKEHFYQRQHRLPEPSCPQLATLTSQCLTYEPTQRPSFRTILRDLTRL
# EXPERIMENTAL_PROTOCOL: Probe displacement assay (scintillation proximity, radiolabeled probe)
# ASSAY_CONTEXT: 2.5 nM Tyk2 (575-869), 40 nM tritiated probe, 30 minutes at room temperature
# Description: […]
MEASUREMENT_KIND: pEC50
The meaning of pEC50 here: minus log10 of the concentration in molar units.

Answered cases to consult:
>>> assay_value("CNc1cc(-n2nc(C(=O)N3CCOCC3)c3ccccc32)nn2c(C(=O)NC3CC3)cnc12")
7.40
>>> assay_value("CNc1cc(-n2cc(C(=O)O)c3ccccc32)nn2c(C(=O)NC3CCC3)cnc12")
7.32

Query: Find the recorded pEC50 belonging to CNC(=O)c1nn(-c2cc(NC)c3ncc(C(=O)NC4CC4)n3n2)c2ccccc12 and report it.
Reply: 7.80

Query: Can you look up the measured pEC50 of CNc1cc(-n2ccc3ncccc32)nn2c(C(=O)NC3CC3)cnc12 for me?
Reply: 6.91

Query: Look at this compound and give its reported pEC50. CNc1cc(-n2cc(C(=O)N3CCC(O)CC3)c3ccccc32)nn2c(C(=O)NC3CC3)cnc12
Reply: 7.72

* * *

# STUDY_SYSTEM: human Tyk2 (amino acids 575-869, His-tagged) (Homo sapiens)
# EXPERIMENTAL_PROTOCOL: Probe displacement assay (scintillation proximity, radiolabeled probe)
# ASSAY_CONTEXT: 2.5 nM Tyk2 (575-869), 40 nM tritiated probe, 30 minutes at room temperature
EC50 by entry:
Field format: number, assumed nM, no unit text.

Query: Item under review: CNc1cc(-n2ccc3c(OC)cccc32)nn2c(C(=O)NC3CC3)cnc12 . Reported EC50?
Reply: 46

Query: What does the data say about its EC50? Entry: CNc1cc(-n2cc(C(=O)NCC(C)(C)O)c3cccnc32)nn2c(C(=O)NC3CC3)cnc12
Reply: 25

Query: Entry CNc1cc(-n2cc(C(=O)N3CCOCC3)c3ccccc32)nn2c(C(=O)NC3CCC3)cnc12 has what EC50?
Reply: 18

Query: Quick check: EC50 of CNc1cc(-n2cc(C(=O)NCCC(N)=O)c3ccccc32)nn2c(C(=O)NC3CC3)cnc12 ?
Reply: 31

Query: Please give the measured EC50 for this compound: CNc1cc(-n2cnc3ccccc32)nn2c(C(=O)NC3CC3)cnc12
Reply: 29

Query: Which EC50 reading was recorded for the compound CNc1cc(-n2nc(C(=O)NCC(C)(C)O)c3ccccc32)nn2c(C(=O)NC3CC3)cnc12 ?
Reply: 75

Query: Consider the compound shown here: CNc1cc(-n2cc(C(=O)NCCOC)c3ccccc32)nn2c(C(=O)NC3CC3)cnc12 What is its recorded EC50?
Reply: 37

Query: Recorded EC50 of CNc1cc(-n2nc(C(=O)N(C)C)c3ccccc32)nn2c(C(=O)NC3CC3)cnc12 , please.
Reply: 61
